assay.overview: In vitro disulfide cleavage and immolation by incubation with cysteine or glutathione (LC/MS)
Type: physicochemical
measurement.conditions: 200 μM cysteine, pH 7.0, 37° C., 24 h
Kind request: treat 0.1% as inclusive, so Percentage of all products at 0.1% or higher is 1, anything lower is -1.

[[record]]
compound = "C=C1C[C@H]2C=Nc3cc(OCCCCCOc4cc5c(cc4OC)C(=O)N4CC(=C)C[C@H]4[C@H](O)N5C(=O)OCC4(S)CC4)c(OC)cc3C(=O)N2C1"
group_label = 1

[[record]]
compound = "C=C1C[C@H]2C=Nc3cc(OCCCCCOc4cc5c(cc4OC)C(=O)N4CC(=C)C[C@H]4C(O)N5C(=O)OCC4(SSC[C@H](N)C(=O)O)CCC4)c(OC)cc3C(=O)N2C1 (stereo partly drawn) [Compound 12a]"
group_label = 1

[[record]]
compound = "C=C1CC2C=Nc3cc(OCCCCCOc4cc5c(cc4OC)C(=O)N4CC(=C)CC4C(O)N5C(=O)OCC(C)SSc4ccc([N+](=O)[O-])cn4)c(OC)cc3C(=O)N2C1 (stereo not drawn)"
group_label = -1

[[record]]
compound = "C=C1C[C@H]2C=Nc3cc(OCCCCCOc4cc5c(cc4OC)C(=O)N4CC(=C)C[C@H]4C(O)N5C(=O)OCC4(SSC[C@H](N)C(=O)O)CC4)c(OC)cc3C(=O)N2C1 (stereo partly drawn)"
group_label = 1

[[record]]
compound = "C=C1C[C@H]2C=Nc3cc(OCCCCCOc4cc5c(cc4OC)C(=O)N4CC(=C)C[C@H]4C(O)N5C(=O)OCC4(SSc5ccc([N+](=O)[O-])cn5)CC4)c(OC)cc3C(=O)N2C1 (stereo partly drawn)"
group_label = 1

[[record]]
compound = "C=C1CC2C=Nc3cc(OCCCCCOc4cc5c(cc4OC)C(=O)N4CC(=C)CC4C(O)N5C(=O)OCC(C)SSCC(N)C(=O)O)c(OC)cc3C(=O)N2C1 (stereo not drawn)"
group_label = -1

[[record]]
compound = "C=C1C[C@H]2C=Nc3cc(OCCCCCOc4cc5c(cc4OC)C(=O)N4CC(=C)C[C@H]4C(O)N5C(=O)OCC4(S)CCC4)c(OC)cc3C(=O)N2C1 (stereo partly drawn)"
group_label = -1

[[record]]
compound = "C=C1C[C@H]2C=Nc3cc(OCCCCCOc4cc5c(cc4OC)C(=O)N4CC(=C)C[C@H]4C(O)N5C(=O)OCC4(SSc5ccc([N+](=O)[O-])cn5)CCC4)c(OC)cc3C(=O)N2C1 (stereo partly drawn)"
group_label = 1


----------
assay.overview: In vitro disulfide cleavage and immolation by incubation with cysteine or glutathione (LC/MS)
Format: physicochemical
measurement.conditions: 4 mM GSH, pH 7.0, 37° C., 4 h
parameter.measured: Percentage of all products (%)

[[record]]
compound = "C=C1CC2C=Nc3cc(OCCCCCOc4cc5c(cc4OC)C(=O)N4CC(=C)CC4C(O)N5C(=O)OCC(C)S)c(OC)cc3C(=O)N2C1 (stereo not shown)"
reported_measurement = 0

[[record]]
compound = "C=C1CC2C=Nc3cc(OCCCCCOc4cc5c(cc4OC)C(=O)N4CC(=C)CC4C(O)N5C(=O)OCC(C)SSCC(NC(=O)CCC(N)C(=O)O)C(=O)NCC(=O)O)c(OC)cc3C(=O)N2C1 (stereo not shown)"
reported_measurement = 0

[[record]]
compound = "C=C1C[C@H]2C=Nc3cc(OCCCCCOc4cc5c(cc4OC)C(=O)N4CC(=C)C[C@H]4C(O)N5C(=O)OCC4(SSC[C@H](NC(=O)CC[C@H](N)C(=O)O)C(=O)NCC(=O)O)CC4)c(OC)cc3C(=O)N2C1 (stereo partly shown)"
reported_measurement = 0.4

[[record]]
compound = "C=C1C[C@H]2C=Nc3cc(OCCCCCOc4cc5c(cc4OC)C(=O)N4CC(=C)C[C@H]4[C@H](O)N5C(=O)OCC4(S)CC4)c(OC)cc3C(=O)N2C1"
reported_measurement = 89.7

